target: human BRAF (Homo sapiens, UniProt P15056); assay: Protein kinase assay (33P-ATP filter binding), human BRAF, 10-dose IC50; settings: MEK1 (K97R) substrate 1 micromolar, ATP 25 micromolar, read-out: B-RAF IC50
Sequence (P15056 whole entry): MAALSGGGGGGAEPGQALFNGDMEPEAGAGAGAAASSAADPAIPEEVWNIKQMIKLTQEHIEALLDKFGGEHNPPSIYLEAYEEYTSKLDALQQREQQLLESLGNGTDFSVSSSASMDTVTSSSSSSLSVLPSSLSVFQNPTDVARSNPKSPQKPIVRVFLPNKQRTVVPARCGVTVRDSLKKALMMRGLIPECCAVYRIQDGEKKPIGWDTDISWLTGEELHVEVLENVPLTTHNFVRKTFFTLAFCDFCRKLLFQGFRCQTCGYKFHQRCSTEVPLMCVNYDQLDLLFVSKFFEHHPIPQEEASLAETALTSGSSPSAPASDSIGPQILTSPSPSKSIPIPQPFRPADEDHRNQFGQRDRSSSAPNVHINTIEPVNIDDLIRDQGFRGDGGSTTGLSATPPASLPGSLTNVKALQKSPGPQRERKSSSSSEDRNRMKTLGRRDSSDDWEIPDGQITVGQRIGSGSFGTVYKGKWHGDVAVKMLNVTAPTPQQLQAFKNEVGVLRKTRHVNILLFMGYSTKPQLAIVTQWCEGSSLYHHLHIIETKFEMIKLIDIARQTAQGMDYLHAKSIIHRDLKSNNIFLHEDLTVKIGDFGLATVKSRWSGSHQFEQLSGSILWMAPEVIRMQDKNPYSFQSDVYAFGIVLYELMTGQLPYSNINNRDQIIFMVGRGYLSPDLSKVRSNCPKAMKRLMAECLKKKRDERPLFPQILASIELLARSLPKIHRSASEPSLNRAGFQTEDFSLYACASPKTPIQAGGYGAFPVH
valueKind: IC50

molecule	IC50
Cc1cc(F)c(NC(=O)NCCC(C)(C)C)cc1-c1cc(OCCO)nc(N2CCOCC2)c1 [Example 6]	10 to 100 nM

Form field: IC50 recorded for Cc1cc(F)c(NC(=O)N2CCC(C(F)(F)F)C2)cc1-c1cc(OCCO)nc(N2CCOCC2)c1 (racemic) [Example 3] with human BRAF (Homo sapiens, UniProt P15056) (enter value)
10 to 100 nM

Form field: IC50 recorded for Cc1cc(F)c(NC(=O)N2CC[C@H](C(F)(F)F)C2)cc1-c1cc(OCCO)nc(N2CCOCC2)c1 [Example 2] with human BRAF (Homo sapiens, UniProt P15056) (enter value)
10 to 100 nM

Form field: IC50 recorded for Cc1cc(F)c(NC(=O)N2CCOC(C(F)(F)F)C2)cc1-c1cc(OCCO)nc(N2CCOCC2)c1 (racemic) [Example 10] with human BRAF (Homo sapiens, UniProt P15056) (enter value)
10 to 100 nM

Form field: IC50 recorded for Cc1cc(F)c(NC(=O)N2CCOC(C(C)(C)C)C2)cc1-c1cc(OCCO)nc(N2CCOCC2)c1 (centres unmarked) [Example 9] with human BRAF (Homo sapiens, UniProt P15056) (enter value)
10 to 100 nM

Form field: IC50 recorded for Cc1cc(F)c(NC(=O)N2CCNC(C(F)(F)F)C2)cc1-c1cc(OCCO)nc(N2CCOCC2)c1 (racemic) [Example 7] with human BRAF (Homo sapiens, UniProt P15056) (enter value)
100 to 1000 nM

The measured values listed here are drawn from patent US20230081390A1.
